System: Pseudomonas aeruginosa expressing AmpC (CL5701)
Test: Antibiotic activity: growth inhibitory concentration (OD600), Pseudomonas aeruginosa CL5701
Type: cell-based
Details: lowest concentration inhibiting 95% of bacterial growth; in the presence of β lactamase inhibitor Relebactam 4 μg/mL; 35±2° C. for 22 hours; tested range 100 μM to 0.098 μM
measure name: PA_CL5701 MITC95 (µM)
One number for each entry, in µM.

Recorded PA_CL5701 MITC95, per entry:
C[n+]1c(-c2ccc(OC[C@H](O/N=C(\C(=O)N[C@@H]3C(=O)N(OS(=O)(=O)O)C3(C)C)c3csc(N)n3)C(=O)O)cc2)ccn1CCCN.O=C([O-])C(F)(F)F; 6.25
CC1(C)[C@H](NC(=O)/C(=N\O[C@@H](COc2ccc(-c3cc(CN)n(CCCN)n3)cc2)C(=O)O)c2csc(N)n2)C(=O)N1OS(=O)(=O)O; 3.125

Go through the list and state PA_CL5701 MITC95 for each entry.
1. C[n+]1cc(-c2c(F)cc(OC[C@H](O/N=C(\C(=O)N[C@@H]3C(=O)N(OS(=O)(=O)O)C3(C)C)c3csc(N)n3)C(=O)O)cc2F)cn1CCCN.O=C(O)C(F)(F)F
2. C[n+]1cc(-c2ccc(OC[C@H](O/N=C(\C(=O)N[C@@H]3C(=O)N(OS(=O)(=O)[O-])C3(C)C)c3csc(N)n3)C(=O)O)cc2F)cn1C[C@@H](O)CN.O=CO (single isomer, unassigned)
3. C[n+]1cc(-c2ccc(OC[C@H](O/N=C(\C(=O)N[C@@H]3C(=O)N(OS(=O)(=O)[O-])C3(C)C)c3nsc(N)n3)C(=O)O)cc2)cn1CCCN

Reply:
[6.25, 3.125, 3.125]

====

I'd appreciate it if you could supply PA_CL5701 MITC95 values for the items below.
System: Pseudomonas aeruginosa expressing AmpC (CL5701)
Test: Antibiotic activity: growth inhibitory concentration (OD600), Pseudomonas aeruginosa CL5701
Format: cell-based
Settings: lowest concentration inhibiting 95% of bacterial growth; in the presence of β lactamase inhibitor Relebactam 4 μg/mL; 35±2° C. for 22 hours; tested range 100 μM to 0.098 μM
Counter-ions that a name gives are not always drawn.
One number for each entry, in µM.

Recorded PA_CL5701 MITC95, per entry:
C[n+]1cc(-c2ccc(OC[C@H](O/N=C(\C(=O)N[C@@H]3C(=O)N(OS(=O)(=O)[O-])C3(C)C)c3nc(N)sc3Cl)C(=O)O)cc2)cn1CCCN [Example 11]; 3.125
Cc1cc(-c2ccc(OC[C@H](O/N=C(\C(=O)N[C@@H]3C(=O)N(OS(=O)(=O)O)C3(C)C)c3csc(N)n3)C(=O)O)cc2)[n+](C)n1CCCN.O=C([O-])C(F)(F)F [Example 22]; 25
Cn1c(-c2ccc(OC[C@](C)(O/N=C(\C(=O)N[C@@H]3C(=O)N(OS(=O)(=O)O)C3(C)C)c3csc(N)n3)C(=O)O)cc2)cn(CCCN)c1=N [Example 107]; 50
C[n+]1cc(-c2ccc(OC[C@H](O/N=C(\C(=O)N[C@@H]3C(=O)N(OS(=O)(=O)[O-])C3(C)C)c3csc(N)n3)C(=O)O)cc2)cn1CCCN [Example 1, sulfate 2,2,2-trifluoroacetate]; 3.125
C[n+]1cc(-c2ccc(OC[C@H](O/N=C(\C(=O)N[C@@H]3C(=O)N(OS(=O)(=O)[O-])C3(C)C)c3csc(N)n3)C(=O)O)cc2)cnc1NCCN [Example 77]; 3.125
CC1(C)[C@H](NC(=O)/C(=N\O[C@@H](COc2ccc(-c3cn(CCCN)nc3N)cc2)C(=O)O)c2csc(N)n2)C(=O)N1OS(=O)(=O)O [Example 27]; 6.25
C[n+]1cc(-c2ccc(OC[C@H](O/N=C(\C(=O)N[C@@H]3C(=O)N(OS(=O)(=O)[O-])C3(C)C)c3csc(N)n3)C(=O)O)cc2)ccc1CNC(CN)CN [Example 79]; 6.25
CC1(C)[C@H](NC(=O)/C(=N\OCCOc2ccc(-c3nc4c([nH]3)CNCC4)cc2)c2csc(N)n2)C(=O)N1OS(=O)(=O)O [Example 86]; 25

Go through the list and state PA_CL5701 MITC95 for each entry.
1. CC1(C)[C@H](NC(=O)/C(=N\O[C@@H](COc2ccc(-c3ccc(NCCN)[n+](CC4CNC4)c3)cc2)C(=O)O)c2csc(N)n2)C(=O)N1OS(=O)(=O)[O-] [Example 98]
2. C[n+]1ccc(-c2ccc(OC[C@H](O/N=C(\C(=O)N[C@@H]3C(=O)N(OS(=O)(=O)[O-])C3(C)C)c3csc(N)n3)C(=O)O)cc2)cc1NCC1CNC1 [Example 65]
3. C[n+]1cc(-c2ccc(OC[C@H](O/N=C(\C(=O)N[C@@H]3C(=O)N(OS(=O)(=O)O)C3(C)C)c3csc(N)n3)C(=O)O)cc2F)cn1CC(N)CN (single isomer, unassigned) [Example 45]
4. CC1(C)[C@H](NC(=O)/C(=N\O[C@@H](COc2ccc(Nc3cc[n+](CCCN)cc3)nc2)C(=O)O)c2csc(N)n2)C(=O)N1OS(=O)(=O)O [Example 33, 2,2,2-trifluoroacetate]

Reply:
[1.563, 12.5, 6.25, 6.25]
